experiment: yeast display, Sf9 membrane polyspecificity reagent, FACS + sequencing; frameworks hold sequencing errors
recorded-endpoint: polyreactivity (PSR sort gate)

QVQLVESGGGLVQAGGSLRLSCAASGNILRGYAMGWYRQAPGKERELVAAIDTRGGRTNYADSVKGRFTISRDNAKNTVYLQMNSLKPEDTAVYYCNALGYYSFGHEYWGQGTQVTVSS ... low polyreactivity
QVHLVESGGGLFQAGGSLRLRCAASGFTFASNAMGWYIQAPGKERELVAAITRSGGSTFYADSVKGRFTISRDNAKNTVYLQMKSLKPEDTAVYYCNAAPYGFGWRVRAFTGYDYWGQGTQVTVSS ... low polyreactivity
QVQLVESGGGLVQAGGSLRFSCAASGRIFVNYAMGWYRQAPGKEREFVAAITSSGGSTYYADSVKGRFTISRDNAKNTVYLQMNSLKPEDTAVYYCAARGSLGGWGLRYYWGQGTQVTVSS ... high polyreactivity
QVQLVESGGGLVQAGGSLRVSCAASGRIFFRNAMGWYRQAPGKESELVAAITRGGGSTYYADSVKGRFTISRDNATNTVYLQMNSLKPEDTEVYYCAAGAGYSLYSAYDYWGQGTQVTVSS ... low polyreactivity
QVQLVESGGGLVQAGGSLRLSCAASGFTFVSNALGWYRQAPGKETELVADITSDGSTNYADSVKGRFSISRDNAKNTVYLQMNSLKPEDTAVYYCATDQRSHTWVNQFDYWGLGTQVTVSS ... low polyreactivity
QVHLVESVGGLVQAGGSLRLSSPASGGTLWVNTMGWYRQAPGKERELVAAISRRGGSTYYADSVKGRFTISRDNAKNTVYLQMNSRKPEDTAVYYCNARENAVSLRDYWGQGTQVTVSS ... high polyreactivity
QVQQVESWGGLLQAGGSLRLSCAASGSIFTLYAMGWYREAPGKERELVADITWSGGSTYYADSVKGRFTISRDNAKNTVYLEMNSLKPEDTAVYYCAIDYLAGGPWEGHVEREYDYWGQGTQVTVSS ... low polyreactivity
QVQLVESGGGLVQAGGSLRLSCASSGRIFYTYAMGWYRQAPGKERELVAAIRYSGGSTYYADSVKGRFTISRDNAMNTVYLQINSLKPEDTAVYYCAATVYTKQFDYWGQGTQVTVSS ... high polyreactivity
QVQLVESGGGFVQAGGSLRLSCASSGRIFYRNAMVWYRQAPGKESELVAAILGSGGRTYYADSVKGSFTISRDTAKNNVYLQMNSMKPEVTAVYYCAAYGYYVEHPRGLSGPYDDDYWGQGTQVTVSS ... low polyreactivity
QVQLVDSGGGLVQAGGSLRLSCAASGSTFDVYAMGWYRQAPGKERELVAVINTSGTRTYYADSVKGRFTISRDNAKNTVYLQMNSLKPEDTEVYYCNAGGHLEMNYWGQGTQVTVSS ... low polyreactivity

What does the record list as polyreactivity (PSR sort gate) for QVQLVESVGGLVQAGASLRLTCAASGSIFWYAMGWYRQAPRQERELVAGISRGGSTYYADSVKGRFTISRDNAKNTVYLQMNSLKPEDTAVYYCNTAGYYGTPSNYWGQGTQVTVSS ?
low polyreactivity

What does the record list as polyreactivity (PSR sort gate) for QVQLVESGGGLVQAGGSLRLSCAASGRTFTYYAMGWYRQAPGKERKLVAAISQRGGGTYYADSVKGRFTISRDNAKNTVYLQMNSLKPEDTAVYYCAARWRLSGYDYWGQGTQVTVSS ?
high polyreactivity

What does the record list as polyreactivity (PSR sort gate) for QVQLVESEGGLVQAGGSLRLSFAASGSIFPYNAMGWYRQAPGKERELVAAISISGGSTYYADSVKGRFTISRDNAKNTVYLLMNSLKPEDTAVYYCAARQSLSSAFDYCGQGTQVTVSS ?
low polyreactivity

What does the record list as polyreactivity (PSR sort gate) for QVQLVESGGGLVQAGGSLRLSCAASGSILKRYAMGWYRQAPGKERELVAAITRRGGSTYYADSVKGRFTISRDNAKNTVYLQMNSLKPEDTAVYYCNAYTYSATVPIFTNYGYWGQGTQVTVSS ?
high polyreactivity

What does the record list as polyreactivity (PSR sort gate) for QVQLVESGGGLVQAGGSLRLSCAASGFTFAYHAMGWYRQAPGKERELVAGINSSGDGTYYADSVKGRFTISRDNAKNTVYLQMNSLKQEDTAVYYCAADYTGFYQDGSYVDYDYWGQGTQVTVSS ?
low polyreactivity

What does the record list as polyreactivity (PSR sort gate) for QVQLVESGGGLVQAGGSLRLSCAASGSIFDFYAMGWYRQAPGKERELVATITASGGSTYYADSVKGRFTISRDNAKNTVYLQMNSLKPEDTAVSYCNADSVYWGQGTQVTVSS ?
low polyreactivity

What does the record list as polyreactivity (PSR sort gate) for QVQLVESGGGLVQAGGSLRLSCAASGGIFKRNTMGWYRQAPGKERELVAGISWTGGRTYYADSVKGRFTISRDNAKNTVYLHMNSLKPEDTAVYYCAAKPLQGVRRVEYWGQGTQVTVSS ?
high polyreactivity

What does the record list as polyreactivity (PSR sort gate) for QVQLAESGGGLVQAGGSLRLSCAASGSTFVSYAMGWYRQAPGKERELVAAIDWSGGNTDYADSVKGRFTISRDNAKNTVYLQMNSLKPEDTAVYYCNADSWPRRGYDYWGQGTQVTVSS ?
low polyreactivity

====

assay: yeast display, Sf9 membrane polyspecificity reagent, FACS + sequencing; frameworks hold sequencing errors
recorded-endpoint: polyreactivity (PSR sort gate)

Worked examples, 5 sequences total:
QVQLVESGGGLVQAGGSLRLSCAASGFIFDNNAMGWYRQAPGKERELVADISESGGSTYYADSVKGRFTISRDNAKNTVYLQMNSLKPEDTAVYYCNADIESWYCEFDYWGQGTQVTVSS ... low polyreactivity
QVQLVESGGGLVQAGGSLRLSCAASGRTFKYYAMGWYRQAPGKERELVAAISYNGGSTFYADSVKGRFTISRDNAKNTVYLQMNSLKPVDTAVYYCAAGPRGTGKYYWGQGTQVTVSS ... high polyreactivity
QVQLVESGGGLVQAGGSLRLSCAASGSIFTFYAMGWYRQAPGKERELVAAISSGGRTYYADSVKGRFTISRDNAKNTVYLQMNSLKPEDTAVYYCAASYQQYFYRYALPADYYYWGQGTQVTVSS ... high polyreactivity
QVQLVESGGGLVQAGGSLRLSCAASGFIFNRYTMGWYRQAPGKERELVAAITGRGGSTYYADSVKGRFSISRDNAKNTVYLQMNSLKPEDTAVYYCAAAPAYRYASYTYGYDSWGQGTQVTVSS ... high polyreactivity
QVQLVESGGGLVQAGGSLRLSCAASGSTFGEYAMGWSRQAPGKERELVATITSAGSTYYADSVKGRITFSRDNAKYTVYLQMNSLKPEDTAVYYCAVDPISQGHMDYWVQGTQVTVSS ... low polyreactivity

What does the record list as polyreactivity (PSR sort gate) for QVQLVESGGGLDQAGGTLRISCAASGSIFAPNAMSWNRQAPGKERELVAAITYSGTSTYADSVKGRFTISRDNAKNTVYLQMNSLKPEDTAVYYCAAEGSGVYYHSYDYWGQGTQVTVSS ?
low polyreactivity

What does the record list as polyreactivity (PSR sort gate) for QDALVESCGGLVQAGGSLRLICAASGSTFDTYALGWYRQAPAKEWELVAGISWSGGSTFFADSVKGRFTISRDNAKNTVSLQMNSLKPEDTAVYDCAKQLWVGVKYDYWGQGPQVTVSS ?
low polyreactivity

What does the record list as polyreactivity (PSR sort gate) for QVQLVESGGGLVQAGGSLRLSCADSGFTLNAMGWYRHAPGKERELVAAITTGGRTYYADSVKGRFTISRDNAKNTVYLQMNSLKPEDTAVYYCGAHTYYYPVGFNYWGQGTQVTVSS ?
low polyreactivity

What does the record list as polyreactivity (PSR sort gate) for PVQLVESGGGLVQAGGSLRLICAASGRIFEINAMGWYRQAPGKERELFAAITRGGRTYYADSVKGRFTSSRDNAMNTVYLQMTSLKPEDTAVYYCAAYGHIRSGFDCVDYWGQGTQVTVSS ?
high polyreactivity

What does the record list as polyreactivity (PSR sort gate) for QVQLVESGGGLVQAGGSLRLSCAASGSTIYYAMGWYRQAPGKERELVAAISYSGGSTRYADSVKGRFTISRDNAKNTVYLEMNFLKPEDTSVYYCAAPRKYYYGESPLDYWGQGTQVTVSS ?
high polyreactivity

What does the record list as polyreactivity (PSR sort gate) for QVQLVESGGGLVQAGGSLRLSCAASGSIFDLYAMGWYRQAPGKERELVAGISYSGGSTYYADSVKGRFTISRDNAKNTVYLQMNSLKPEDTAVYYCAADDSYWYDNYIDEAAANTFDYWGQGTQVTVSS ?
low polyreactivity

What does the record list as polyreactivity (PSR sort gate) for QVQLVESGGGLVQAGGSLRLSCAASGSTFDIYAMGWYRQAPGKERELVAAITFSGGSTYADSVKGRFTISRDNAKNTVYLQMNSLKPEDTAVYYCAVDGGEFSSYGYWGQGTQVTVSS ?
low polyreactivity

What does the record list as polyreactivity (PSR sort gate) for QVQLVDSGGGIVQAGGSLRLSCAASGFIIAHYAMGWYRHAPGKERELVAAISWNGGRTYYADSVKGRFTISRDNAKNSVFFQRISLKPEDTAVYYCAADNRGTTVYYRNYYWGQGTQVTVSS ?
high polyreactivity

What does the record list as polyreactivity (PSR sort gate) for QVQLVESGGGLVQAGGSLRLSCAASGSIFGTNAMGWYRPAPGKERELVAAINWSGGTTYYADSVKGRFTISRDIAKNTVYLQMNSLKPEDTAVFYCNVGYPSIYDYWGQGTQVTVSS ?
low polyreactivity
